Tested on: CYP2D6
EXPERIMENTAL DETAILS: in vitro
RECORDED CONDITIONS: microsomes
METRIC: pIC50
Please express pIC50 as -log10 of the molar concentration.

Example entries and their recorded answers appear below.
COMPOUND: O=c1c(OC2O[C@H](CO)[C@@H](O)[C@H](O)[C@H]2O)c(-c2ccc(O)cc2)oc2cc(O)c(O)c(O)c12 (stereo partly shown) [A6, 6-hydoxykaempferol-3-O-glucoside]
pIC50: 4.71
--
COMPOUND: O=c1c(O[C@@H]2O[C@H](CO)[C@@H](O)[C@H](O)[C@H]2O)c(-c2ccc(O)cc2)oc2cc(O)c(O[C@@H]3O[C@H](CO)[C@@H](O)[C@H](O)[C@H]3O)c(O)c12 [A13, 6-hydroxykaempferol-3,6-di-O-glucoside]
pIC50: 4.43
--
COMPOUND: C[C@@H]1OC(OC[C@H]2OC(Oc3c(-c4ccc(O)cc4)oc4cc(O)c(OC5O[C@H](CO)[C@@H](O)[C@H](O)[C@H]5O)c(O)c4c3=O)[C@H](O)[C@@H](O)[C@@H]2O)[C@H](O)[C@H](O)[C@H]1O (stereo partly shown) [A12]
pIC50: 4.01

Lab note: next compound to report on.
Query string: Tell me the measured pIC50 of O=C(/C=C/c1ccc(O)cc1)C1=C(O)C2=C(O[C@H]([C@@H](O)[C@H](O)[C@H](O)CO)[C@H]2C2=C(O)/C(=C(O)/C=C/c3ccc(O)cc3)C(=O)C(O)([C@@H]3O[C@H](CO)[C@@H](O)[C@H](O)[C@H]3O)C2=O)C(O)([C@@H]2O[C@H](CO)[C@@H](O)[C@H](O)[C@H]2O)C1=O (stereo partly shown) [A8, anhydroxysafflor yellow B] , please.
Result string: 4.98
